Each recorded value in this set is attributed to patent EP4725957A1.

Measured MIC accompanies every entry in the list below.
System: Pseudomonas aeruginosa PAE19-3
Format: cell-based
Conditions: PAE19-3
Description: The minimal inhibitory concentration (MIC) was determined by the broth microdilution method according to the recommended procedures of the Clinical and Laboratory Standards Institute (CLSI). An appropriate amount of the cyclic lipopeptide compounds prepared in Examples 1-120 and the reference standards were weighed and dissolved in sterile pure water. […]
Bridge positions count the residues as written; N and C are the ends. Square brackets hold non-standard residues; d marks the D form. Peptide text beside a SMILES is read from it. * marks the point of attachment. Heptanoyl(6-Me) = CC(C)CCCCC(=O)*; Sulfomethyl = O=S(=O)(O)C*; Nonanoyl = CCCCCCCCC(=O)*; X1 = CC[C@H](C)CCCCC(=O)*; dDab = NCC[C@@H](N)C(=O)O; Orn = NCCC[C@H](N)C(=O)O; Dab = NCC[C@H](N)C(=O)O; Dap = NC[C@H](N)C(=O)O

compound	system under test	result
CC[C@H](C)CCCCC(=O)N[C@@H](CCN)C(=O)N[C@H](C(=O)N[C@@H](CCCN)C(=O)N[C@H]1CCNC(=O)[C@H]([C@@H](C)O)NC(=O)[C@H](CCN)NC(=O)[C@H](CCN)NC(=O)[C@H]([C@@H](C)O)NC(=O)[C@@H](Cc2ccccc2)NC(=O)[C@H](CCN)NC1=O)[C@@H](C)O [Compound 26] (X1-[Dab]T[Orn][Dab][Dab][dF]T[Dab][Dab]T; lactam 4-C)	Pseudomonas aeruginosa PAE19-3	0.25 µg/mL
CCCCCCCCC(=O)N[C@@H](CN)C(=O)N[C@H](C(=O)N[C@H](CCN)C(=O)N[C@H]1CCNC(=O)[C@H]([C@@H](C)O)NC(=O)[C@H](CCN)NC(=O)[C@H](CCN)NC(=O)[C@H](CC(C)C)NC(=O)[C@@H](Cc2ccccc2)NC(=O)[C@H](CCN)NC1=O)[C@@H](C)O [Compound 95] (Nonanoyl-[Dap]T[dDab][Dab][Dab][dF]L[Dab][Dab]T; lactam 4-C)	Pseudomonas aeruginosa PAE19-3	1 µg/mL
CC[C@H](C)CCCCC(=O)N[C@@H](CCN)C(=O)N[C@H](C(=O)N[C@@H](CCCN)C(=O)N[C@H]1CCNC(=O)[C@H]([C@@H](C)O)NC(=O)[C@H](CCN)NC(=O)[C@H](CCN)NC(=O)[C@H](CC(C)C)NC(=O)[C@@H](Cc2ccccc2)NC(=O)[C@H](CCN)NC1=O)[C@@H](C)O [Compound 46] (X1-[Dab]T[Orn][Dab][Dab][dF]L[Dab][Dab]T; lactam 4-C)	Pseudomonas aeruginosa PAE19-3	0.25 µg/mL

[ask] Suppose we examine the compound CC(C)CCCCC(=O)N[C@@H](CCN)C(=O)N[C@H](C(=O)N[C@@H](CN)C(=O)N[C@H]1CCNC(=O)[C@H]([C@@H](C)O)NC(=O)[C@H](CCN)NC(=O)[C@H](CCN)NC(=O)[C@H]([C@@H](C)OCS(=O)(=O)O)NC(=O)[C@@H](Cc2ccccc2)NC(=O)[C@H](CCN)NC1=O)[C@@H](C)O [Compound 114] ({Heptanoyl(6-Me)}-[Dab]T[Dap][Dab][Dab][dF]T(Sulfomethyl)[Dab][Dab]T; lactam 4-C) ; what MIC value has been reported?
[reply] 0.25 µg/mL

[ask] Suppose we examine the compound CC(C)CCCCC(=O)N[C@@H](CCN)C(=O)N[C@H](C(=O)N[C@H](CO)C(=O)N[C@H]1CCNC(=O)[C@H]([C@@H](C)O)NC(=O)[C@H](CCCN)NC(=O)[C@H](CCN)NC(=O)[C@H]([C@@H](C)O)NC(=O)[C@@H](Cc2ccccc2)NC(=O)[C@H](CCN)NC1=O)[C@@H](C)O [Compound 87] ({Heptanoyl(6-Me)}-[Dab]T[dS][Dab][Dab][dF]T[Dab][Orn]T; lactam 4-C) ; what MIC value has been reported?
[reply] 64 µg/mL
